Biological target: T1, huFn14-huFc fusion protein (human, UniProt Q9NP84 28-80)
T1 construct: also called hFn14-hFc; bivalent Fn14-Fc; not shown: human Fc
Test: competition ELISA on coated huFn14-huFc against a constant amount of biotinylated murine P4A8, OD450; value is C (midpoint) of the printed 4-P fit, x in ng/ml
assay.metric: IC50

binder="humanized P4A8 (H2/L1) huIgG1, kappa (antibody, V domains shown, One of the 'six versions of huP4A8'; also called version of huP4A8 H2/L1) VH: QVQLVQSGAEVKKPGASVKVSCKGSGYTFTDYGMHWVRQAPGQGLEWIGVISTYNGYTNYNQKFKGRATMTVDKSTSTAYMELRSLRSDDTAVYYCARAYYGNLYYAMDYWGQGTLVTVSS VL: DIVLTQSPASLAVSLGQRATISCRASKSVSTSSYSYMHWYQQKPGQPPKLLIKYASNLESGVPARFSGSGSGTDFSLNIHPMEEDDTAMYFCQHSRELPFTFGGGTKLEIKR" assay_metric=IC50 measured="0.0275 µg/mL"
binder="humanized P4A8 (H2/L3) huIgG1, kappa (antibody, V domains shown, One of the 'six versions of huP4A8'; also called version of huP4A8 H2/L3) VH: QVQLVQSGAEVKKPGASVKVSCKGSGYTFTDYGMHWVRQAPGQGLEWIGVISTYNGYTNYNQKFKGRATMTVDKSTSTAYMELRSLRSDDTAVYYCARAYYGNLYYAMDYWGQGTLVTVSS VL: DIVLTQSPASLAVSLGQRATISCRASKSVSTSSYSYMHWYQQKPGQPPKLLIKYASNLESGVPARFSGSGSGTDFILNIHPMEEDDTATYYCQHSRELPFTFGGGTKLEIKR" assay_metric=IC50 measured="0.0357 µg/mL"
binder="humanized P4A8 (H2/L2) huIgG1, kappa (antibody, V domains shown, One of the 'six versions of huP4A8'; also called version of huP4A8 H2/L2) VH: QVQLVQSGAEVKKPGASVKVSCKGSGYTFTDYGMHWVRQAPGQGLEWIGVISTYNGYTNYNQKFKGRATMTVDKSTSTAYMELRSLRSDDTAVYYCARAYYGNLYYAMDYWGQGTLVTVSS VL: DIVLTQSPASLAVSLGQRATISCRASKSVSTSSYSYMHWYQQKPGQPPKLLIKYASNLESGVPARFSGSGSGTDFILNIHPMEEDDTAMYFCQHSRELPFTFGGGTKLEIKR" assay_metric=IC50 measured="0.0326 µg/mL"
binder="humanized P4A8 (H1/L3) huIgG1, kappa (antibody, V domains shown, One of the 'six versions of huP4A8'; also called version of huP4A8 H1/L3) VH: QVQLVQSGAEVKKPGASVKVSCKGSGYTFTDYGMHWVRQAPGQGLEWMGVISTYNGYTNYNQKFKGRVTMTVDKSTSTAYMELRSLRSDDTAVYYCARAYYGNLYYAMDYWGQGTLVTVSS VL: DIVLTQSPASLAVSLGQRATISCRASKSVSTSSYSYMHWYQQKPGQPPKLLIKYASNLESGVPARFSGSGSGTDFILNIHPMEEDDTATYYCQHSRELPFTFGGGTKLEIKR" assay_metric=IC50 measured="0.0316 µg/mL"
binder="humanized P4A8 (H1/L2) huIgG1, kappa (antibody, V domains shown, One of the 'six versions of huP4A8' (two heavy chains by three light chains) expressed transiently in 293E cells; also called version of huP4A8 H1/L2) VH: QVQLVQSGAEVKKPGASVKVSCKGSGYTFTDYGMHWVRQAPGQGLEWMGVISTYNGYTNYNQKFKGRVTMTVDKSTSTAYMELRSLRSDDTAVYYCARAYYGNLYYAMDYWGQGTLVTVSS VL: DIVLTQSPASLAVSLGQRATISCRASKSVSTSSYSYMHWYQQKPGQPPKLLIKYASNLESGVPARFSGSGSGTDFILNIHPMEEDDTAMYFCQHSRELPFTFGGGTKLEIKR" assay_metric=IC50 measured="0.0408 µg/mL"
